Recorded pIC50 for the following compounds
# Subject of test: Bromodomain-containing protein 4 (Homo sapiens)
# Assay method text: Inhibition of HYSGRGK(Ac)GGK(Ac)GLGK(Ac)GGAK(Ac)RHRK(Biotin)-OH binding to recombinant human His6-tagged BRD4 bromodomain 1 (N44 to E168 residues) expressed in Escherichia coli BL21 (DE3) cells measured after 2 hrs by Alphascreen assay
pIC50: −log10 of the molar value.

{"Smiles input": "Cc1noc2c(Br)cc(-c3nc4ccc(N5CCOCC5)cc4n3CC3CCCCC3)cc12", "Value comparator": "=", "pIC50": 6.52}
{"Smiles input": "COc1ccc(Br)cc1S(=O)(=O)Nc1cc2c(C)noc2cc1OCC(=O)O", "Value comparator": "=", "pIC50": 6.24}
{"Smiles input": "Cc1cc2onc(C)c2cc1NS(=O)(=O)c1c(Cl)cccc1Cl", "Value comparator": "<", "pIC50": 4.70}
{"Smiles input": "Cc1cc2onc(C)c2cc1NS(=O)(=O)c1cccc(Cl)c1Cl", "Value comparator": "=", "pIC50": 5.45}
{"Smiles input": "Cc1cc2onc(C)c2cc1NS(=O)(=O)c1ccc(Cl)cc1", "Value comparator": "<", "pIC50": 4.70}
{"Smiles input": "Cc1cc2onc(C)c2cc1NS(=O)(=O)c1cc(Cl)ccc1Cl", "Value comparator": "=", "pIC50": 5.63}

----------
# Subject of test: Bromodomain-containing protein 4 (Homo sapiens, UniProt O60885)
# Assay method text: Binding affinity to human recombinant His6-tagged BRD4 bromodomain 1 (N44 to E168 residues) expressed in Escherichia coli BL21 (DE3) cells assessed as dissociation constant incubated for 1 hr by isothermal titration calorimetry
pKd: −log10 of the molar value.
Recorded pKd for the following compounds

{"Smiles input": "Cc1noc2c(Br)cc(-c3nc4ccc(N5CCOCC5)cc4n3CC3CCCCC3)cc12", "pKd": 6.80}
{"Smiles input": "COc1cc2onc(C)c2cc1NS(=O)(=O)c1cc(Br)ccc1OC", "pKd": 7.09}
{"Smiles input": "Cc1noc2ccc(-c3nc4ccc(N5CCOC[C@@H]5C)cc4n3CC3CCCCC3)cc12", "pKd": 7.09}
{"Smiles input": "CNc1cc2onc(C)c2cc1NS(=O)(=O)c1cc(Br)ccc1OC", "pKd": 6.79}

----------
# Subject of test: Bromodomain-containing protein 3 (Homo sapiens) (UniProt Q15059)
# Sequence (Q15059 2-726 limits assumed): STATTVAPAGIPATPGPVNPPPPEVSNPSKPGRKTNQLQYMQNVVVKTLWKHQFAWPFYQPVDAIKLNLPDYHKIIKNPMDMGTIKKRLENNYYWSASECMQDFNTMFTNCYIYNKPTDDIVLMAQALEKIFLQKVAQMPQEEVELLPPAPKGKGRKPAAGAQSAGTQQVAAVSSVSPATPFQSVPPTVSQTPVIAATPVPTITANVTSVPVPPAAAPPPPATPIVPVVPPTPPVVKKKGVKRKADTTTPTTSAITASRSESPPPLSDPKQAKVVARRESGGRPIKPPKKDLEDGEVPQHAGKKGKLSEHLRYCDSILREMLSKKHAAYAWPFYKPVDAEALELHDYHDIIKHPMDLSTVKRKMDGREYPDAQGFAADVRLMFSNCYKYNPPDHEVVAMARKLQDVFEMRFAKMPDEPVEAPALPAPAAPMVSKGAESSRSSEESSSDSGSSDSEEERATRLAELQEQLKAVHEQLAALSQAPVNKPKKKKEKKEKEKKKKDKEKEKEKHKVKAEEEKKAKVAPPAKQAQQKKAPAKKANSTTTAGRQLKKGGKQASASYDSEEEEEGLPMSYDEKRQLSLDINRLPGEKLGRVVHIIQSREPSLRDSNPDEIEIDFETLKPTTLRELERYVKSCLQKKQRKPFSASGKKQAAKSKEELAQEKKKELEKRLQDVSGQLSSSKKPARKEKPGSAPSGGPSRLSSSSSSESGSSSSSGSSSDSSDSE
# Assay method text: Binding affinity to human recombinant His6-tagged BRD3 bromodomain 1 (P24 to E144 residues) expressed in Escherichia coli BL21 (DE3) cells assessed as change in melting temperature at 200 uM incubated for 30 mins by SYPRO orange dye based thermal shift assay
Recorded ΔTm for the following compounds

{"Smiles input": "CNc1cc2onc(C)c2cc1NS(=O)(=O)c1cc(Br)ccc1OC", "Units symbol": "°C", "ΔTm": 6.5}
{"Smiles input": "COc1cc2onc(C)c2cc1NS(=O)(=O)c1cc(Br)ccc1OC", "Units symbol": "°C", "ΔTm": 8.1}
{"Smiles input": "Cc1noc2c(Br)cc(-c3nc4ccc(N5CCOCC5)cc4n3CC3CCCCC3)cc12", "Units symbol": "°C", "ΔTm": 8.9}
{"Smiles input": "Cc1noc2ccc(-c3nc4ccc(N5CCOC[C@@H]5C)cc4n3CC3CCCCC3)cc12", "Units symbol": "°C", "ΔTm": 8.7}

----------
# Subject of test: Histone acetyltransferase p300 (Homo sapiens)
# Assay method text: Binding affinity to human recombinant His6-tagged EP300 (A1040 to G1161 residues) expressed in Escherichia coli BL21 (DE3) cells assessed as change in melting temperature at 200 uM incubated for 30 mins by SYPRO orange dye based thermal shift assay
Recorded ΔTm for the following compounds

{"Smiles input": "Cc1noc2ccc(-c3nc4ccc(N5CCOC[C@@H]5C)cc4n3CC3CCCCC3)cc12", "Subject of test": "Histone acetyltransferase p300 (Homo sapiens)", "Units symbol": "°C", "ΔTm": 0.3}
{"Smiles input": "CNc1cc2onc(C)c2cc1NS(=O)(=O)c1cc(Br)ccc1OC", "Subject of test": "Histone acetyltransferase p300 (Homo sapiens)", "Units symbol": "°C", "ΔTm": 2.3}
{"Smiles input": "COc1cc2onc(C)c2cc1NS(=O)(=O)c1cc(Br)ccc1OC", "Subject of test": "Histone acetyltransferase p300 (Homo sapiens)", "Units symbol": "°C", "ΔTm": 2}
{"Smiles input": "Cc1noc2c(Br)cc(-c3nc4ccc(N5CCOCC5)cc4n3CC3CCCCC3)cc12", "Subject of test": "Histone acetyltransferase p300 (Homo sapiens)", "Units symbol": "°C", "ΔTm": -0.3}

----------
# Subject of test: Bromodomain-containing protein 2 (Homo sapiens) (UniProt P25440)
# Sequence (P25440 whole entry, looked up, the tested form may be a part): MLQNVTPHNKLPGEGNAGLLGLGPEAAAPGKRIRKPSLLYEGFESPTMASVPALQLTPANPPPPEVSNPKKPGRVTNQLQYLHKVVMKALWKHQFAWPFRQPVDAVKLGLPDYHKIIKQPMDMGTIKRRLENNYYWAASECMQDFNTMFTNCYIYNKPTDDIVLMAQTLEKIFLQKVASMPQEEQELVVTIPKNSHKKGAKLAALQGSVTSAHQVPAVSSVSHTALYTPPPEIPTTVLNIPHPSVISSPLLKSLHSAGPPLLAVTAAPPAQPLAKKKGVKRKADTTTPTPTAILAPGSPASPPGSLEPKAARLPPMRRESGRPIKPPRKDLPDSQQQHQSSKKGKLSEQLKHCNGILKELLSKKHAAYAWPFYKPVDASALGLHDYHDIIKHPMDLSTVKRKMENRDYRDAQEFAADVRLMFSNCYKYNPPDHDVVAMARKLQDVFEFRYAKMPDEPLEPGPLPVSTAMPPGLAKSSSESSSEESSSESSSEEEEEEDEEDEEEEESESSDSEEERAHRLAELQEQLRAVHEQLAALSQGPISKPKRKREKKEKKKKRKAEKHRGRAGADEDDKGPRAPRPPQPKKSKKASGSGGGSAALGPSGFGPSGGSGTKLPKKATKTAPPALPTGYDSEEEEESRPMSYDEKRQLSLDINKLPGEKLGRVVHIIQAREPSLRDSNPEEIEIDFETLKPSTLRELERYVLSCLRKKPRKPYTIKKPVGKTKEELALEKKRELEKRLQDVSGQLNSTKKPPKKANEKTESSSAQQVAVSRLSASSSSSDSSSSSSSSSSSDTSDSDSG
# Assay method text: Binding affinity to human recombinant His6-tagged BRD2 bromodomain 1 (K77 to N194 residues) expressed in Escherichia coli BL21 (DE3) cells assessed as change in melting temperature at 200 uM incubated for 30 mins by SYPRO orange dye based thermal shift assay

{"Smiles input": "Cc1noc2ccc(-c3nc4ccc(N5CCOC[C@@H]5C)cc4n3CC3CCCCC3)cc12", "ΔTm (°C)": 6.3}
{"Smiles input": "COc1cc2onc(C)c2cc1NS(=O)(=O)c1cc(Br)ccc1OC", "ΔTm (°C)": 5.3}
{"Smiles input": "CNc1cc2onc(C)c2cc1NS(=O)(=O)c1cc(Br)ccc1OC", "ΔTm (°C)": 5.3}
{"Smiles input": "Cc1noc2c(Br)cc(-c3nc4ccc(N5CCOCC5)cc4n3CC3CCCCC3)cc12", "ΔTm (°C)": 6}

----------
# Subject of test: Bromodomain-containing protein 4 (Homo sapiens)
# Assay method text: Binding affinity to human recombinant His6-tagged BRD4 bromodomain 1 (N44 to E168 residues) expressed in Escherichia coli BL21 (DE3) cells assessed as gibbs free energy change incubated for 1 hr by isothermal titration calorimetry

{"Smiles input": "CNc1cc2onc(C)c2cc1NS(=O)(=O)c1cc(Br)ccc1OC", "deltaG": "-9.3 kcal/mol"}
{"Smiles input": "Cc1noc2ccc(-c3nc4ccc(N5CCOC[C@@H]5C)cc4n3CC3CCCCC3)cc12", "deltaG": "-9.7 kcal/mol"}
{"Smiles input": "COc1cc2onc(C)c2cc1NS(=O)(=O)c1cc(Br)ccc1OC", "deltaG": "-9.7 kcal/mol"}
{"Smiles input": "Cc1noc2c(Br)cc(-c3nc4ccc(N5CCOCC5)cc4n3CC3CCCCC3)cc12", "deltaG": "-9.3 kcal/mol"}

----------
# Tested on: CWR22R
# Assay method text: Antiproliferative activity against AR-positive human 22Rv1 cells assessed as reduction in cell viability incubated for 96 hrs by cell-titer glo assay
# Format: functional, cell-based
# Condition details: 22Rv1, 96 h
Value type: IC50 (nM)

{"Smiles input": "CNc1cc2onc(C)c2cc1NS(=O)(=O)c1cc(Br)ccc1OC", "Subject of test": "CWR22R", "Experimental value": 6730}
{"Smiles input": "Cc1noc2ccc(-c3nc4ccc(N5CCOC[C@@H]5C)cc4n3CC3CCCCC3)cc12", "Subject of test": "CWR22R", "Experimental value": 700}
{"Smiles input": "Cc1noc2c(Br)cc(-c3nc4ccc(N5CCOCC5)cc4n3CC3CCCCC3)cc12", "Subject of test": "CWR22R", "Experimental value": 640}
{"Smiles input": "COc1cc2onc(C)c2cc1NS(=O)(=O)c1cc(Br)ccc1OC", "Subject of test": "CWR22R", "Experimental value": 1500}

----------
# Subject of test: Bromodomain-containing protein 4 (Homo sapiens, UniProt O60885)
# Assay method text: Binding affinity to human recombinant His6-tagged BRD4 bromodomain 1 (N44 to E168 residues) expressed in Escherichia coli BL21 (DE3) cells assessed as change in melting temperature at 200 uM incubated for 30 mins by SYPRO orange dye based thermal shift assay
// classify: if (ΔTm < 7 °C) t else f

{"Smiles input": "COc1cc2onc(C)c2cc1NS(=O)(=O)c1cc(Cl)ccc1Cl", "Assigned category": "f"}
{"Smiles input": "COc1cc2onc(C)c2cc1NS(=O)(=O)c1cc(C)ccc1OC", "Assigned category": "f"}
{"Smiles input": "COCCn1c(-c2ccc3onc(C)c3c2)nc2ccc(N3CCOCC3)cc21", "Assigned category": "t"}
{"Smiles input": "Cc1cc2onc(C)c2cc1NS(=O)(=O)C1CCCCC1", "Assigned category": "t"}
{"Smiles input": "CCCOc1cc2onc(C)c2cc1NS(=O)(=O)c1cc(Br)ccc1OC", "Assigned category": "t"}
{"Smiles input": "COc1cc2onc(C)c2cc1NS(=O)(=O)c1cc(Br)ccc1OC", "Assigned category": "f"}
{"Smiles input": "CCCCn1c(-c2ccc3onc(C)c3c2)nc2ccc(N3CCOCC3)cc21", "Assigned category": "t"}
{"Smiles input": "Cc1cc2onc(C)c2cc1NS(=O)(=O)C1CCCC1", "Assigned category": "t"}
{"Smiles input": "COc1ccc(Br)cc1S(=O)(=O)Nc1cc2c(C)noc2cc1OCC(=O)NCCNC(C)=O", "Assigned category": "t"}
{"Smiles input": "Cc1cc2onc(C)c2cc1NS(=O)(=O)c1ccc(Cl)cc1", "Assigned category": "t"}
{"Smiles input": "CCS(=O)(=O)Nc1cc2c(C)noc2cc1C", "Assigned category": "t"}
{"Smiles input": "Cc1cc2onc(C)c2cc1NS(=O)(=O)c1ccccc1C(=O)O", "Assigned category": "t"}
{"Smiles input": "CCOc1cc2onc(C)c2cc1NS(=O)(=O)c1cc(Br)ccc1OC", "Assigned category": "f"}
{"Smiles input": "Cc1cc2onc(C)c2cc1NS(=O)(=O)c1c(Cl)cccc1Cl", "Assigned category": "t"}
{"Smiles input": "COc1ccc(Br)cc1S(=O)(=O)Nc1cc2c(C)noc2cc1C", "Assigned category": "f"}
{"Smiles input": "COc1cc2onc(C)c2cc1NS(=O)(=O)c1ccccc1Cl", "Assigned category": "f"}
{"Smiles input": "COc1ccc(C)cc1S(=O)(=O)Nc1cc2c(C)noc2cc1C", "Assigned category": "t"}

Recorded values, source ChEMBL document CHEMBL4765238.
